Experiment: chemical genetic growth profiling, strain panel (AID 1159580);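 note: tested at 20 µM; growth read once vehicle control cultures reached saturation at 30 °C; lower values mean less growth of the strain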
Details: S. cerevisiae deletion strains, growth OD, locus YJL095W, strain BCK1
Screen size: about 5,500 compounds; about 2,000 (36%) were called active. Inconclusive results (about 18%) are left out. Cut-off read from the data, not from the text of the source: active = normalized growth mostly below about 0.91 (no sharp cut-off); inconclusive = no clear call, values can overlap the other calls; inactive = mostly above about 0.92. Some of the results follow.
Form entry, call: pick from active, inactive

Below are worked cases with known answers.
COP(=O)(OC)C(O)C(Cl)(Cl)Cl (stereo unspecified)    inactive
Cc1cc(OC(=O)c2c(C)cc(OC(=O)c3c(C)cc(O)cc3O)cc2O)cc(O)c1C(=O)O    inactive
CC(C)C1COc2cc3oc(=O)ccc3cc2O1 (stereo unspecified)    active
COc1ccc2c(c1C(C)C)CCC1C(C)(C)C(=O)CCC21C (stereo unspecified)    inactive
CCNC(=S)N/N=C\c1cc(Cl)cc(Cl)c1O    inactive

(Q) Which outcome was entered for the molecule CC(C)(O)[C@@H]1Cc2cc3ccc(=O)oc3cc2O1 in this test?
(A) inactive

(Q) Which outcome was entered for the molecule O=[N+]([O-])c1cc(Cl)cc([N+](=O)[O-])c1Nc1ccccc1 in this test?
(A) inactive

(Q) Which outcome was entered for the molecule COC(=O)C1OC(=O)C2OC23C1(C)CCC1C2(C)C(OC(C)=O)CC(OC(C)=O)C(C)(C)C2CC(=O)C13C (stereo unspecified) in this test?
(A) inactive

(Q) Which outcome was entered for the molecule OC1(C(F)(F)F)CC(c2ccc3ccccc3c2)=NN1 (stereo unspecified) in this test?
(A) active

(Q) Which outcome was entered for the molecule CN(C)c1ccc2nc3ccc(=[N+](C)C)cc-3sc2c1 in this test?
(A) inactive

(Q) Which outcome was entered for the molecule OC(COc1ccc(F)cc1)(c1ccccc1)c1ccccc1 in this test?
(A) inactive
